Numbers sourced from BigSolDB 2.1.

settings: in n-octanol, 308.15 K
In this section we review reported solubility (mole fraction) values for a set of compounds.
Give a plain numeric answer without units written out.

Sample answers from the record:
Problem: I am curious: what solubility (mole fraction) value has been reported for O=c1c(O)c(-c2ccc(O)cc2O)oc2cc(O)cc(O)c12 ?
Result: 0.00251

Problem: Name the reported solubility (mole fraction) value associated with the compound COc1ccc(C2CC(=O)c3c(O)cc(O)cc3O2)cc1O (stereo unspecified)
Result: 0.0033

Problem: Sample O=C1C[C@@H](c2ccc(O)cc2)Oc2cc(O)cc(O)c21 — what was its solubility (mole fraction)?
Result: 0.0103

Problem: So what does the record say about solubility (mole fraction) for O=C1c2c(O)cc(O)cc2OC(c2ccc(O)c(O)c2)C1O (stereo unspecified) ?
Result: 0.0157

Continuing:
Problem: Look up solubility (mole fraction): COc1ccc(-c2coc3cc(O)ccc3c2=O)cc1
Result: 0.00065

Problem: Find the recorded solubility (mole fraction) belonging to O=c1cc(-c2ccc(O)cc2)oc2cc(O)cc(O)c12 and report it.
Result: 0.00084

###

details: in water, 318.15 K
Listed compounds paired with reported solubility (mole fraction)
The reply should be a number, written without any unit.

Problem: Dear colleague, I am looking for the recorded solubility (mole fraction) of the following compound: O=c1cc(-c2ccc(O)c(O)c2)oc2cc(O)cc(O)c12
Result: 3.74e-07

Problem: Could you share which solubility (mole fraction) value was measured for O=c1c(O)c(-c2ccc(O)cc2)oc2cc(O)cc(O)c12 ?
Result: 7.65e-09

Problem: Given O=c1c(O)c(-c2ccc(O)c(O)c2)oc2cc(O)cc(O)c12 , state its recorded solubility (mole fraction).
Result: 3.78e-08

###

Quick reference: solubility (mole fraction) of the listed items.
conditions: in n-octanol, 298.15 K
Please reply with the number alone, leaving off any unit.

Problem: Field request: solubility (mole fraction) | item: O=c1c(O)c(-c2ccc(O)c(O)c2)oc2cc(O)cc(O)c12
Result: 0.00526

Problem: Item COc1ccc(-c2coc3cc(O)ccc3c2=O)cc1 has what recorded solubility (mole fraction)?
Result: 0.00056

Problem: Which value of solubility (mole fraction) has been reported for O=c1cc(-c2ccc(O)c(O)c2)oc2cc(O)cc(O)c12 in the records?
Result: 0.0002

Problem: Endpoint output: solubility (mole fraction) of O=c1cc(-c2ccc(O)cc2)oc2cc(O)cc(O)c12 . Value?
Result: 0.00077

Problem: Which value of solubility (mole fraction) has been reported for O=c1c(O)c(-c2ccc(O)cc2O)oc2cc(O)cc(O)c12 in the records?
Result: 0.00226

---
Problem: GET /values?readout=solubility (mole fraction)&item= COc1ccc(C2CC(=O)c3c(O)cc(O)cc3O2)cc1O (stereo not given)
Result: 0.00269

Problem: What value of solubility (mole fraction) has been recorded for this entry: O=C1c2c(O)cc(O)cc2OC(c2ccc(O)c(O)c2)C1O (stereo not given)
Result: 0.0127

Problem: Query (compound): O=c1c(O)c(-c2ccc(O)cc2)oc2cc(O)cc(O)c12 ; field requested: solubility (mole fraction)
Result: 0.00857

Problem: Please give the measured solubility (mole fraction) for this compound: O=C1C[C@@H](c2ccc(O)cc2)Oc2cc(O)cc(O)c21
Result: 0.00903

Problem: solubility (mole fraction) for O=c1cc(-c2ccccc2)oc2cc(O)cc(O)c12 ?
Result: 0.00208

###

conditions: in water, 313.15 K
ATTRIBUTE MEASURED: solubility (mole fraction)
API note: the answer field is a bare number with no unit suffix.

Problem: Find the recorded solubility (mole fraction) belonging to O=c1c(O)c(-c2ccc(O)c(O)c2)oc2cc(O)cc(O)c12 and report it.
Result: 2.34e-08

Problem: Can you share its solubility (mole fraction)? I mean this molecule: COc1ccc(C2CC(=O)c3c(O)cc(O)cc3O2)cc1O (stereo not given)
Result: 4.66e-07

Problem: Quick one: solubility (mole fraction) of COc1ccc(-c2coc3cc(O)ccc3c2=O)cc1 ?
Result: 1.08e-08

Problem: Record request: solubility (mole fraction) value, item O=c1cc(-c2ccccc2)oc2cc(O)cc(O)c12
Result: 1e-08

Problem: Looking for the measured solubility (mole fraction) of O=c1c(O)c(-c2ccc(O)cc2)oc2cc(O)cc(O)c12 , can you help?
Result: 4.48e-09

Problem: Consider the molecule shown here: O=c1c(O)c(-c2ccc(O)cc2O)oc2cc(O)cc(O)c12 What is its recorded solubility (mole fraction)?
Result: 4.57e-08

Problem: Give its solubility (mole fraction) value. Item: O=c1cc(-c2ccc(O)c(O)c2)oc2cc(O)cc(O)c12
Result: 1.91e-07

Problem: What does the data say about its solubility (mole fraction)? Entry: O=C1c2c(O)cc(O)cc2OC(c2ccc(O)c(O)c2)C1O (stereo not given)
Result: 6.88e-05

Problem: Need solubility (mole fraction) of O=c1cc(-c2ccc(O)cc2)oc2cc(O)cc(O)c12 , thanks.
Result: 5.87e-08

Problem: Could you tell me which solubility (mole fraction) is on file for O=C1C[C@@H](c2ccc(O)cc2)Oc2cc(O)cc(O)c21 ?
Result: 7.64e-07

###

details: in n-octanol, 303.15 K
ATTRIBUTE MEASURED: solubility (mole fraction)
Output: the number by itself.

The cases that follow already have their solubility (mole fraction) on record.
Problem: Can you share its solubility (mole fraction)? I mean this compound: O=c1c(O)c(-c2ccc(O)cc2O)oc2cc(O)cc(O)c12
Result: 0.00235

Problem: Field request: solubility (mole fraction) | item: O=c1c(O)c(-c2ccc(O)cc2)oc2cc(O)cc(O)c12
Result: 0.00895

Problem: Query: solubility (mole fraction); subject: O=C1C[C@@H](c2ccc(O)cc2)Oc2cc(O)cc(O)c21
Result: 0.00963

Problem: Query (compound): O=c1c(O)c(-c2ccc(O)c(O)c2)oc2cc(O)cc(O)c12 ; field requested: solubility (mole fraction)
Result: 0.00608

Problem: Param item = COc1ccc(-c2coc3cc(O)ccc3c2=O)cc1 ; retrieve measured solubility (mole fraction).
Result: 0.0006

Problem: # solubility (mole fraction) lookup, item O=C1c2c(O)cc(O)cc2OC(c2ccc(O)c(O)c2)C1O (stereo not given)
Result: 0.0141

Problem: Could you share which solubility (mole fraction) value was measured for O=c1cc(-c2ccc(O)cc2)oc2cc(O)cc(O)c12 ?
Result: 0.0008

Problem: GET /values?readout=solubility (mole fraction)&item= COc1ccc(C2CC(=O)c3c(O)cc(O)cc3O2)cc1O (stereo not given)
Result: 0.00299

Problem: Give the measured solubility (mole fraction) of O=c1cc(-c2ccc(O)c(O)c2)oc2cc(O)cc(O)c12 .
Result: 0.00021

Now examine the next entry.
Problem: I'd like to know its solubility (mole fraction). The compound in question is O=c1cc(-c2ccccc2)oc2cc(O)cc(O)c12
Result: 0.00218

###

details: in n-octanol, 308.15 K
ATTRIBUTE MEASURED: solubility (mole fraction)
The answer should be a number; do not append a unit.

Problem: Return reported solubility (mole fraction); argument: O=c1cc(-c2ccc(O)c(O)c2)oc2cc(O)cc(O)c12
Result: 0.00023

Problem: Entry under review: O=c1c(O)c(-c2ccc(O)cc2)oc2cc(O)cc(O)c12 . Reported solubility (mole fraction)?
Result: 0.00965

Next:
Problem: Look at this molecule and give its reported solubility (mole fraction). O=c1cc(-c2ccccc2)oc2cc(O)cc(O)c12
Result: 0.00228

Problem: What value of solubility (mole fraction) has been reported for the following molecule? O=c1c(O)c(-c2ccc(O)c(O)c2)oc2cc(O)cc(O)c12
Result: 0.00677

###

conditions: in water, 298.15 K
Catalogue of compounds with associated solubility (mole fraction)
Provide a numeric answer; units are not to be included.

These solved cases illustrate the format of a correct answer.
Problem: // returns reported solubility (mole fraction) for input O=c1cc(-c2ccc(O)cc2)oc2cc(O)cc(O)c12
Result: 7.47e-09

Problem: Any idea what its solubility (mole fraction) is? The compound is O=c1c(O)c(-c2ccc(O)cc2)oc2cc(O)cc(O)c12
Result: 4.59e-10

Problem: GET /values?readout=solubility (mole fraction)&item= O=C1c2c(O)cc(O)cc2OC(c2ccc(O)c(O)c2)C1O (stereo not given)
Result: 2.55e-05

Further cases:
Problem: What value of solubility (mole fraction) has been reported for the following compound? O=c1cc(-c2ccc(O)c(O)c2)oc2cc(O)cc(O)c12
Result: 4.54e-08

Problem: Recorded solubility (mole fraction) of COc1ccc(C2CC(=O)c3c(O)cc(O)cc3O2)cc1O (stereo not given) , please.
Result: 5.51e-08

Problem: Requested read-out: solubility (mole fraction). Entry: O=c1cc(-c2ccccc2)oc2cc(O)cc(O)c12
Result: 5.95e-10
